Items are presented alongside their recorded protein stability index.
Experiment: protein stability index of a GFP-peptide fusion (yeast GPS) (PSI 1-4); higher = more stable; sorted into four equal gates, so the index is relative within each strain
Details: doa10∆
Assay metric: protein stability index

QNNNTLGGGGLFGQSQQ [YGR119C/NUP57] : 3.43
GFYQIKKIVDSKKLNLK [YMR129W/POM152] : 3.11
HWLQLAKGVYRPNGRKD [POP1] : 2.68
AYVVNDTAPKPNIVEID [DLS1] : 3.26
ERYFDCCTKFFTMMTSE [PCI8] : 2.38
MPYTINELLEMVGLASG [BRR2] : 2.56
KINDESSIDKKSSILTV [YML103C/NUP188] : 2.35
EFIFGTYNMIDAAAEKR [ARP7] : 2.99
GAHLGRFVIWTEAAFTK [RPL4A] : 2.87
KIMVAEWYLSHLCSGIL [SRB8] : 1.35
NIVSDAGANDTSNNETN [GRR1] : 2.79
AIHIFESYYNWKYNNFL [YML103C/NUP188] : 2.04
LERLTLVFCKHITSVPI [GRR1] : 1.47
QQQLYGGNNNNNSTGIA [SWI1] : 3.12
KTKYILQRPTATDEESV [CSN12] : 3.18
QDNKKIYVHVRRSTPFS [ESC2] : 2.34
IQQLHSVLNPFLLRRVK [ISW2] : 2.06
EFVSYYYAHSIPSSKID [SNU114] : 2.01
YWYEQDSAKEWPQSKNC [RPB3] : 3.4
LASFEKTTDHLFDAAFY [RPO31] : 2.9
WLVVPTIYNLQHHVTDA [YML031W/NDC1] : 1.38
FALPAGSPKSATSKTSE [CDC53] : 2.9
SYRLLPQINILQPIKGE [RPC40] : 2.04
GIPTDKGPRFRKLTSQE [PRE8] : 3.14
DLETLTMHTKTYAAEIA [RPL32] : 2.99
PSEFHCLQDALDAIDDF [SSN2] : 3.14
LDEVDAALDLSHTQNIG [SMC2] : 3.07
VNCLELLINTNFNKFFK [PCI8] : 1.77
KPYYFSNNHKLSESDKK [RPN12] : 1.23
SGEDAEEELWNSPSKGN [YIL149C/MLP2] : 3.15
IPGEYITYALSGYVRSR [RPS21B] : 2.42
LSKRQKRKSAQEPELSL [SMC4] : 3.17
PRETIPFLHLRKKTPAG [FAS2] : 2.73
KLDASKKQQAALTNELN [YIL149C/MLP2] : 2.79
HSRKMNLTRGINLRKVA [RPT6] : 1.26
KFLQEFINLLLNCCGSV [IRR1] : 2.07
MTAMRLMLKKLKNSIMS [YML031W/NDC1] : 1.6
LEEVSLKWIDTASKFGK [RPL3] : 1.75
QHEQGTFEKHDRVEDIC [RRI2] : 2.89
DNVSKNALDKLRNNLNS [YCG1] : 3.23
EDKFLYGDGNGKGDNDN [SWI3] : 3.48
VLTAAGVERLIFYPDEY [PRE3] : 2.78
SQTQLENANAANNGAAF [MED2] : 2.71
CKLFDKISFNLRLKLFL [SRB8] : 1.41
PKILIREHERVILKQIL [SWP82] : 1.84

====

Assay: protein stability index of a GFP-peptide fusion (yeast GPS) (PSI 1-4); higher = more stable; sorted into four equal gates, so the index is relative within each strain
Details: san1∆
Please mark 1 if the recorded protein stability index is equal to or greater than 3, and 0 if it falls below.

ELLPHYPFVTNDDIEWM [YJR042W/NUP85] : 0
TLPGDDELDQEILNLST [RPT5] : 1
DIPTIADEHFWADNYER [BRN1] : 1
EVAIRDVNLDVRIHSIQ [IRR1] : 0
DYQVQGLNWLISLHENK [ISW2] : 0
SNIGNNSINNNNIKNGT [YDL088C/ASM4] : 0
EIEIEGVMSLLQKSSKS [YAR002W/NUP60] : 1
NLQVELLSEHDDHNGEV [YGL100W/SEH1] : 0
TKTTGKCGSVTVRLIPA [RPS2] : 0
NNLKNSGNSANNMNVNM [GAL11] : 0
DMLEHINLAMNESSLAL [SRB4] : 0
ETASFIPTKESLTRDFE [YIL149C/MLP2] : 0
HHAIEEAESLLQFHVAT [RPO21] : 0
DVNIIGKDRIAINVFPE [RPO31] : 0
IACVLTVINEQQREAVR [RPL35A] : 0
LGICTHLGCVPIGEAGD [RIP1] : 0
HRCAIRSGALIKFKKCD [SSN2] : 0

====

Assay: protein stability index of a GFP-peptide fusion (yeast GPS) (PSI 1-4); higher = more stable; sorted into four equal gates, so the index is relative within each strain
Settings: san1∆
Items are presented alongside their recorded protein stability index.
Assay metric: protein stability index

LIIRNDSLSGAVIAAIM [RPT3] : 2.94
SVSMLLQYYILEYMNTA [RRI2] : 2.93
EEEEDTTTTANINEVKK [NUT1] : 3.09
GQLTGIYRYKYKVMHQI [PRP8] : 2.91
STKSNKAKNPLTHSTPK [RPL8B] : 2.94
IGVIAGGGRVDKPLLKA [RPL2A] : 3.05

====

Test: protein stability index of a GFP-peptide fusion (yeast GPS) (PSI 1-4); higher = more stable; sorted into four equal gates, so the index is relative within each strain
Conditions: doa10∆
Items are presented alongside their recorded protein stability index.
Assay metric: protein stability index

ADYWTHAYRDVLAQYHE [SNF6] : 3.02
AKKQNYKLTNDEEGIFS [YCG1] : 3.23
TWEECVFFDDDPLYDIT [REC8] : 3
QTKRWPTMYTRLCICSG [SIN4] : 1.4
KRKCGHTNQLRPKKKLK [RPL40A] : 2.76
RILKLGTQLATLKNRGL [YGR119C/NUP57] : 2.29
QVRRDIPSAAFNFFEPI [YMR129W/POM152] : 1.9
NNTTTTSTKPSFSFGAP [YOR098C/NUP1] : 3.26
KNRSNRKRFHSQSKGTV [YOR098C/NUP1] : 3.21
TIEHAADITDGNNTELT [YCG1] : 3.29
IKTFYWLEQFLSCVKND [NUT1] : 1.31
QLDFTEFDEQYGTRPLV [SNF2] : 3.26
DSIDLAPNTLTNILISP [YML103C/NUP188] : 1.58
SFHVQKKTCSSCGYPAA [RPL37A] : 1.85
MMVNISVLISIPLDNYD [PCI8] : 1.43
NNCEDFVSRPDRTMLAP [FAS1] : 3.28

====

Assay: protein stability index of a GFP-peptide fusion (yeast GPS) (PSI 1-4); higher = more stable; sorted into four equal gates, so the index is relative within each strain
Conditions: san1∆
Assay metric: protein stability index

PRQTKKAKAQAQAQAQA [PGD1] : 3.22
RKYSFNYSSLPSPYKTT [YAR002W/NUP60] : 2.71
VKVSAAAGKANKQFAKF [RPS11A] : 2.85
SKGSFINIAQMSACVGQ [RPO21] : 1.3
VLGIKVKIMRDPAKSRT [RPS3] : 2.98
FNLLILSLNKRIYDREP [YCG1] : 2.22
NAFRKEELLLKDLEIRK [GAL11] : 3.18
EIAGLSPYERRLIDLIR [RPL36A] : 2.02
TLSYDDISAAIVHSSDG [DLS1] : 2.72
PFHSHLLVPASDLINKD [FAS1] : 2.13
KRPNNKTLEKLESTIAE [IRR1] : 3.01
SEGYQKTFSRLDALTRH [RPN4] : 1.06
SEAFPSLQSCSVAVHFQ [SMC4] : 2.39
IAQGIDLVRDIDIDKLI [SRP72] : 1.58
PKFAIQDNHHITKVTEN [YMR129W/POM152] : 2.75
EVVQTGAKNIEITVVKP [PRE6] : 3.08
LYPSFKPIYKDTRFGGR [SSN2] : 3.1
DGSAIEDDDIRSRMLPT [SNF5] : 3.46
SWASEGISKKTRIAGVV [RPS8A] : 2.17
TKPNVLNDPSLKIQFIL [SIN4] : 2.57
KINRPPVSVSRIARALK [RPL18A] : 1.97
GSAADTQAIADIVQYHL [PRE3] : 2.88
LGNHAITIDSVVDANGC [YMR129W/POM152] : 2.56
SNGEVLEVGKNNFCALY [RPN14] : 1.64
QRGKWNLKYLDNSNVMT [RGR1] : 2.58
PFNKPNIETGENHNGQS [SWI3] : 3.22
VRNVKGPVRENDILVLM [RPS28A] : 3.5
QGGVLPNIHQNLLPKKS [HTA1] : 2.9
